system: secondary alcohol dehydrogenase; assay: Purified yeast-derived secondary alcohol dehydrogenase activity; type: biochemical, Pichia sp. NRRL Y-11,328
measure: oxidation by the purified enzyme (substrate specificity)

# structure_smiles, result
rows = [
    ("CCCCO", "not oxidized"),
    ("CCCO", "not oxidized"),
    ("CCO", "not oxidized"),
]

====

# % inhibition of SADH activity annotations
tested on: secondary alcohol dehydrogenase (SADH); test: Purified secondary alcohol dehydrogenase (SADH) activity; assay type: biochemical, Pseudomonas sp. ATCC 21439; conditions: each inhibitor 1 mM; measured spectrofluorometrically

# molecule, test_system, readout_unit, % inhibition of SADH activity
measured = [
    ("CCN1C(=O)C=CC1=O [N-ethylmalemide]", "secondary alcohol dehydrogenase (SADH)", "%", 6),
    ("[Cu+2]", "secondary alcohol dehydrogenase (SADH)", "%", 25),
    ("[Mg+2]", "secondary alcohol dehydrogenase (SADH)", "%", 0),
    ("O=C(O)c1cc(SSc2ccc([N+](=O)[O-])c(C(=O)O)c2)ccc1[N+](=O)[O-]", "secondary alcohol dehydrogenase (SADH)", "%", 100),
    ("O=C(O)c1cc[c]([Hg+])cc1.[OH-] [p-hydroxymercuribenzoate]", "secondary alcohol dehydrogenase (SADH)", "%", 100),
    ("c1cnc2c(c1)ccc1cccnc12", "secondary alcohol dehydrogenase (SADH)", "%", 95),
    ("[Zn+2]", "secondary alcohol dehydrogenase (SADH)", "%", 0),
    ("[Fe+3]", "secondary alcohol dehydrogenase (SADH)", "%", 35),
    ("[Fe+2]", "secondary alcohol dehydrogenase (SADH)", "%", 50),
    ("[N-]=[N+]=[N-] [Sodium azide]", "secondary alcohol dehydrogenase (SADH)", "%", 10),
    ("[Ni+2]", "secondary alcohol dehydrogenase (SADH)", "%", 20),
    ("[Mn+2]", "secondary alcohol dehydrogenase (SADH)", "%", 0),
    ("[Co+2]", "secondary alcohol dehydrogenase (SADH)", "%", 0),
    ("c1ccc(-c2ccccn2)nc1", "secondary alcohol dehydrogenase (SADH)", "%", 70),
]

====

system: secondary alcohol dehydrogenase; test: Purified yeast-derived secondary alcohol dehydrogenase activity; assay type: biochemical, Pichia sp. NRRL Y-11,328; conditions: purified enzyme
measure: inhibition of secondary alcohol dehydrogenase activity

# compound, result
rows = [
    ("N[C@@H](CCC(=O)N[C@@H](CS)C(=O)NCC(=O)O)C(=O)O", "strongly inhibited"),
    ("N#C[S][Hg][S]C#N [mercuric thiocyanate]", "inhibited"),
    ("c1c[nH]cn1", "strongly inhibited"),
    ("O=[N+]([O-])[O-].[Ag+] [silver nitrate]", "inhibited"),
    ("O=C(O)c1cc[c]([Hg+])cc1.[OH-] [p-hydroxymercuribenzoate]", "strongly inhibited"),
    ("c1cnc2c(c1)ccc1cccnc12", "strongly inhibited"),
    ("O=S(=O)([O-])[O-].[Cu+2] [Cupric Sulfate]", "inhibited"),
]

====

test system: secondary alcohol dehydrogenase; assay: Purified yeast-derived secondary alcohol dehydrogenase activity; format: biochemical, Pichia sp. NRRL Y-11,328; settings: examined spectrophotometrically
measure: oxidation by the purified enzyme (substrate specificity)

# molecule, result
data = [
    ("CC(C)O [2-propanol]", "catalyzed the oxidation"),
    ("CCCCCCC(C)O (stereo not shown) [2-octanol]", "not oxidized"),
    ("CCCC(C)O (stereo not shown) [2-pentanol]", "catalyzed the oxidation"),
    ("CCC(O)CO (stereo not shown) [butane 1,2-diol]", "not oxidized"),
    ("CO [methanol]", "not oxidized"),
    ("CCCCCO [pentan-1-ol]", "not oxidized"),
    ("CC(O)CCO (stereo not shown) [butane 1,3-diol]", "not oxidized"),
    ("CCCCCC(C)O (stereo not shown) [2-Heptanol]", "not oxidized"),
    ("CC(O)CO (stereo not shown) [1,2-propandiol]", "not oxidized"),
    ("CCCCC(C)O (stereo not shown) [2-hexanol]", "catalyzed the oxidation"),
]
